# PROCEDURE_DETAILS: Half life in mouse at 50 mg/kg, po
# Format: ADME, organism-based
# Parameters: dose 50 mg/kg, route oral
# EXPERIMENTAL_CONDITIONS: in vivo

{"COMPOUND": "COc1ccc(-c2nc(Nc3cccc(NC(=O)N4CCCC4)c3)nc3nc[nH]c23)cc1", "half-life": "1.84 h"}

---

# PROCEDURE_DETAILS: Clearance in mouse at 50 mg/kg, po
# Format: ADME, organism-based
# Design: dose 50 mg/kg, route oral
# EXPERIMENTAL_CONDITIONS: in vivo
RECORDED_METRIC: CL/F (mL/min/kg)

{"COMPOUND": "COc1ccc(-c2nc(Nc3cccc(NC(=O)N4CCCC4)c3)nc3nc[nH]c23)cc1", "UNITS": "mL/min/kg", "ASSAY_RESULT": 10.5}
